test system: HOP-92; experiment: NCI tumour cell line growth inhibition, 48 h
Activity calls are given as the source filed them. Cut-off read from the data, not from the text of the source: active = GI50 up to about 1.1 µM and inactive = higher.
Classes used: active, inactive

>>> group_label("CC(=O)O[C@H]1C(=O)O[C@@H]2C[C@H]3C(C)=CC(=O)[C@@H](O)[C@]3(C)[C@H]3[C@@]4(O)OC[C@]32[C@@H]1[C@@H](C)[C@H]4O")
"active"
>>> group_label("COC1CN(C)/C(=N\\c2cccc3ccccc23)S1 (stereo not given)")
"inactive"
>>> group_label("CCOP(=O)(CCC(O)CNc1nc(N)nc(Cl)c1/N=N/c1ccc(Cl)cc1)OCC (stereo not given)")
"active"
>>> group_label("CC(C)(Br)C(Br)CCC1(C(Br)CBr)CO1 (stereo not given)")
"inactive"
>>> group_label("O=c1c(C(c2ccccn2)c2c(O)oc3cc(O)ccc3c2=O)c(O)oc2cc(O)ccc12")
"inactive"
>>> group_label("Cc1ccc(S(=O)(=O)NNCNC(=O)c2ccccc2)cc1")
"inactive"
>>> group_label("COc1ccc(C2C=C(c3ccc4c(c3)OCO4)Oc3c2c(=O)oc2ccccc32)cc1OC (stereo not given)")
"inactive"
>>> group_label("CC(C)(C)C1=NN=C2c3ccccc3C(=O)C21 (stereo not given)")
"inactive"
>>> group_label("C/C(=N\\NC(=S)N(C)C)c1ncc[nH]1")
"inactive"
>>> group_label("O=S(=O)(c1cccc(C(F)(F)F)c1)N1c2ccccc2-n2cccc2C1c1cccnc1 (stereo not given)")
"inactive"

====

test system: COLO 205; assay: NCI tumour cell line growth inhibition, 48 h
Calls of active or inactive are those of the source. No stated cut-off is given here; in the data, active = GI50 up to about 1.1 µM and inactive = higher.
Observed property: GI50

>>> value_observed("C/C1=C\\CC[C@@]2(C)O[C@@H]2C[C@@H]2[C@H](C/C(C)=C/CC1)OC(=O)[C@]21CO1")
"> 100 µM (inactive)"
>>> value_observed("O=C(NCc1ccccc1)c1cc2cc(O)c(O)cc2cn1")
"34.8 µM (inactive)"
>>> value_observed("CC(C)(C)C1=NN=C2c3ccccc3C(=O)C21 (centres undefined)")
"37.8 µM (inactive)"
>>> value_observed("O=C1Nc2ccccc2/C1=N/NC(=S)Nc1ccc([N+](=O)[O-])cc1")
"10.3 µM (inactive)"
>>> value_observed("CC1=C(C(=O)Nc2cc(=O)n(C)c(=O)n2C)C(c2ccc([N+](=O)[O-])cc2)C(C(=O)Nc2cc(=O)n(C)c(=O)n2C)=C(C)N1")
"> 100 µM (inactive)"
>>> value_observed("C[C@@H](c1ccccc1)N(CC#N)[C@H]1CCC[C@]1(O)/C=C/c1ccc2c(c1)OCO2")
"> 25 µM (inactive)"
>>> value_observed("CCOC(=O)C(NC(=O)c1ccccc1)(Nc1ccc(S(=O)(=O)Nc2ccc(OC)nn2)cc1)C(F)(F)F (centres undefined)")
"> 100 µM (inactive)"
>>> value_observed("O=C(O)c1ccc(N2C=[N+]3C(=Nc4ccccc43)C2)cc1")
"> 100 µM (inactive)"
>>> value_observed("COc1ccc(CNc2nc(NCc3ccc(OC)cc3)nc(NC3CCCC3)n2)cc1")
"3.05 µM (inactive)"

====

system: SW-620; test: NCI tumour cell line growth inhibition, 48 h
The source made the active and inactive calls. No stated cut-off is given here; in the data, active = GI50 up to about 1.1 µM and inactive = higher.
Recorded GI50, one value per entry.
Observed property: GI50

>>> value_observed("Cc1csc(NNC(=O)Nc2ccccc2)n1")
"> 100 µM (inactive)"
>>> value_observed("O=C1CC(c2ccccc2)n2cccc21 (stereo unspecified)")
"> 100 µM (inactive)"
>>> value_observed("CCCN(CCC)CCc1ccc(OC2=CCN(C)CC2)cc1")
"> 100 µM (inactive)"
>>> value_observed("O=C(O)CC1C(=O)OC2C3COC(=O)c4cc(O)c(O)c(O)c4-c4c(cc(O)c(O)c4O)C(=O)OC2C(OC(=O)c2cc(O)c(O)c4c2C1C(O)C(=O)O4)C(OC(=O)c1cc(O)c(O)c(O)c1)O3 (stereo unspecified)")
"28.8 µM (inactive)"
>>> value_observed("O=c1[nH]c(=O)n(C2CC(O)C(CO)O2)cc1C#Cc1cc(C(F)(F)F)cc(C(F)(F)F)c1 (stereo unspecified)")
"> 30.2 µM (inactive)"
>>> value_observed("CS(=O)(=O)OCCN(CCOS(C)(=O)=O)c1ccc(/C=N/c2ccc3oc(=O)ccc3c2)cc1")
"14.2 µM (inactive)"

====

test system: SR; experiment: NCI tumour cell line growth inhibition, 48 h
The source made the active and inactive calls. No stated cut-off is given here; in the data, active = GI50 up to about 1.1 µM and inactive = higher.
Classes used: yes = active, no = inactive

>>> group_label("Brc1c(C#CCC2CCCCC2)ccc(C#CCC2CCCCC2)c1Br")
"no"
>>> group_label("Fc1ccc(/C=C2\\COCC3=C2NC(=S)NC3c2ccc(F)cc2)cc1 (stereo not given)")
"no"
>>> group_label("Clc1ccc(C[P+]2(c3ccccc3)CCCCC2)cc1.[O-][Cl+3]([O-])([O-])[O-]")
"no"
>>> group_label("COc1ccccc1/[N+]([O-])=C/c1ccccc1OC(=S)S")
"no"
>>> group_label("Cc1c(C(=O)C/C(=N/NC(=O)C[N+](C)(C)C)C(=O)Nc2ccc(Cl)cc2)[n+]([O-])c2ccccc2[n+]1[O-]")
"no"
>>> group_label("CC1=NC(C)(COC(=O)C2(C)NC(C)(CO)CO2)COC1=O (stereo not given)")
"no"
>>> group_label("O=c1[nH]c(=O)n(C2OC(COP(=O)(O)OP(=O)(O)OC3OC(CO)C(O)C(O)C3O)C(O)C2O)cc1F (stereo not given)")
"yes"
>>> group_label("CCOC(=O)CC(=O)N(c1ccc(OC)cc1)C(C(=O)OC)c1ccccc1 (stereo not given)")
"no"
>>> group_label("CSc1nc(NC2OCC(OC(C)=O)C(OC(C)=O)C2OC(C)=O)c(/N=C\\C=N\\c2c(NC3OCC(OC(C)=O)C(OC(C)=O)C3OC(C)=O)nc(SC)[nH]c2=O)c(=O)[nH]1 (stereo not given)")
"no"
>>> group_label("O=C(CCCc1cccc2[nH]c3c(c12)CN(Cc1ccccc1)CC3)c1ccc(F)cc1")
"no"

====

tested on: M14; assay: NCI tumour cell line growth inhibition, 48 h
Active and inactive are the calls of the source. Rule as the data show it: active = GI50 up to about 1.1 µM and inactive = higher.
Classes used: active, inactive

>>> group_label("COc1cccc(N2C(=O)/C(=C/c3ccc(N(CCC#N)CCC#N)cc3)N=C2c2cc([N+](=O)[O-])ccc2Cl)c1")
"inactive"
>>> group_label("c1ccc2c(c1)-c1ccccc1C2NC1=NCCO1")
"inactive"
>>> group_label("Cc1ccc(NC(=S)N/N=C2\\C(=O)Nc3ccccc32)cc1")
"inactive"
>>> group_label("O=[N+]([O-])/C(C(Cl)=C(Cl)Cl)=C(/Sc1ccccc1)N1CCOCC1")
"inactive"
>>> group_label("COc1ccc(C[C@H](N)C(=O)N2C[C@H](CO)C[C@H](n3cnc4c(N(C)C)ncnc43)C2)cc1")
"inactive"
>>> group_label("CC(C)(Br)C(Br)CCC1(C(Br)CBr)CO1 (stereo not drawn)")
"inactive"
>>> group_label("Sc1nnc(CNc2ccc(-c3nnc(S)n3-c3ccc(Cl)cc3)cc2)n1-c1ccc(Cl)cc1")
"inactive"
>>> group_label("COc1cc(/C=C2\\NC(=O)C3Cc4c(OC)c(C)c(OC)c(OC)c4C2N3C)c(OC)c(C)c1OC (stereo not drawn)")
"inactive"
>>> group_label("COc1cc(C(O)c2ccc3c(c2)OCO3)cc(OC)c1OC (stereo not drawn)")
"inactive"
>>> group_label("Cc1ccc(C(=O)CCC2C(=O)CC(C)(C)CC2=O)cc1")
"inactive"
>>> group_label("Cn1c(=O)c2c(n(C)c1=O)n1c(=O)c3ccccc3nc1n2C")
"inactive"
>>> group_label("COc1cccc(NC(=O)C(C#N)=C(SC)SC)c1")
"inactive"
>>> group_label("COC(=O)CN1Cc2cc(C)cc(c2O)CN(CC(=O)OC)Cc2cc(C)cc(c2O)CN(CC(=O)OC)Cc2cc(C)cc(c2O)CN(CC(=O)OC)Cc2cc(C)cc(c2O)C1")
"inactive"
>>> group_label("N#Cc1cnn2c1n[n+]([O-])c1ccc(Cl)cc12")
"inactive"
>>> group_label("CC(C)(C)OC(=O)N1[C@@H]2Cc3ccc(N)cc3[C@@]1(C)c1ccccc12")
"inactive"
>>> group_label("CCOC(=O)c1nc2cc(C(F)(F)F)ccc2nc1Nc1cc(OC)c(OC)c(OC)c1")
"inactive"
>>> group_label("CN(C)CCNc1ncnc2nc(-c3ccccc3)c(-c3ccccc3)nc12")
"inactive"
>>> group_label("O=P(O)(O)CN1CCNCCN(CP(=O)(O)O)CCNCC1")
"inactive"
>>> group_label("C=C1CC[C@]2(C)[C@H](CC[C@@]34C[C@@H](CC[C@H]32)[C@@H](C(=O)O)C4)C1(C)C")
"inactive"
>>> group_label("N#CC(C#N)=C(C(C#N)C#N)C(C#N)C#N")
"inactive"
>>> group_label("O=C1Cc2c(-c3ccccc3)cc(-c3ccccc3)nc2-c2ccccc2N1")
"inactive"
>>> group_label("COc1ccc(C2C=C(c3ccc4c(c3)OCO4)Oc3c2c(=O)oc2ccccc32)cc1OC (stereo not drawn)")
"active"
>>> group_label("O=C1CN(c2cccc(Cl)c2)C(=O)CN1CCN1CC(=O)N(c2cccc(Cl)c2)CC1=O")
"inactive"
>>> group_label("CCCC1(N)CC(OC)OC(C)C1O (stereo not drawn)")
"inactive"
>>> group_label("CC1=C2C(=CC(C)(C)C2O)C(=O)C(C)(O)C12CC2 (stereo not drawn)")
"active"
>>> group_label("O=CNc1ccccc1OCCOc1ccccc1NC=O")
"inactive"
>>> group_label("CCC1CC2C(=O)N(c3ccccc3)C(=O)C2c2[nH]c3ccccc3c21 (stereo not drawn)")
"inactive"
>>> group_label("CCc1ccc(Cc2ccc(CC)c(NC(=O)C(=O)C3NC(=S)NC3=O)c2CC)c(CC)c1NC(=O)C(=O)C1NC(=S)NC1=O (stereo not drawn)")
"inactive"
>>> group_label("CC(C)C(Sc1nc(-c2ccccc2)c(-c2ccccc2)[nH]1)C(=O)NNC(=S)Nc1ccccc1 (stereo not drawn)")
"inactive"
>>> group_label("CC(CCC=O)CCOCc1ccccc1 (stereo not drawn)")
"inactive"
>>> group_label("O=C(O)C1(C(=O)O)CC1")
"inactive"
>>> group_label("CN(/N=C/c1ccccc1O)c1ccc2ccccc2n1")
"inactive"
>>> group_label("C/C(=N\\NC(=S)N(C)C)c1ncc[nH]1")
"inactive"
>>> group_label("Clc1ccc(C2c3ccccc3-c3nc4ccccc4n32)cc1 (stereo not drawn)")
"inactive"
>>> group_label("COc1ccc2[nH]c(C(=O)N3CC(CCl)c4ccc([N+](=O)[O-])cc43)cc2c1 (stereo not drawn)")
"inactive"
>>> group_label("COc1ccc(CNc2nc(NCc3ccc(OC)cc3)nc(NC3CCCC3)n2)cc1")
"inactive"
>>> group_label("Oc1ccc(O)c(Cc2ccccc2)c1")
"inactive"
>>> group_label("COC1=C(OC)C(=O)C(Cc2c(C)nc3sccn23)=C(C)C1=O")
"inactive"
>>> group_label("Cc1cc(O)c2c(=O)c3ccccc3[nH]c2c1")
"inactive"
>>> group_label("CCOc1ccc2c(ccc(/C=C/c3cc(C)c4cccnc4c3O)[n+]2C)c1")
"active"
>>> group_label("CC(=O)c1cccc(NC(=O)C(=O)C(C(=O)NN)c2ccccc2)c1 (stereo not drawn)")
"inactive"
>>> group_label("COc1cc(S(=O)(=O)Nc2ccc(-c3csc(N4C(=O)CSC4c4ccccc4O)n3)cc2)ccc1Cl (stereo not drawn)")
"inactive"
>>> group_label("O=c1[nH]c(Nc2nc3ccccc3[nH]2)nc2c1CCC2")
"inactive"
